# test-summary: Chromatographic hydrophobicity index of compound incubated for 20 mins by reversed-phase HPLC analysis
# Type: ADME
Where a name gives a salt, the structure may show the parent alone. Square brackets hold non-standard residues; d marks the D form. Peptide text beside a SMILES is read from it. * marks the point of attachment. Sta = CC(C)C[C@H](N)[C@@H](O)CC(=O)O; Tfa = O=C(C(F)(F)F)*
quantity-measured: CHI

CC(C)C[C@H](NC(=O)[C@H](C)NC(=O)C[C@H](O)[C@H](CC(C)C)NC(=O)[C@@H](NC(=O)[C@@H](NC(=O)C(F)(F)F)C(C)C)C(C)C)[C@@H](O)CC(=O)O (Tfa-VV[Sta]A[Sta]-OH); 43.68
CC(C)CC(=O)N[C@H](CCSC(F)(F)F)C(=O)N[C@H](C(=O)N[C@@H](CC(C)C)[C@@H](O)CC(=O)N[C@@H](C)C(=O)N[C@@H](CC(C)C)[C@@H](O)CC(=O)O)C(C)C; 45.85
CC(C)CC(=O)N[C@@H](CCSC(F)(F)F)C(=O)N[C@H](C(=O)N[C@@H](CC(C)C)[C@@H](O)CC(=O)N[C@@H](C)C(=O)N[C@@H](CC(C)C)[C@@H](O)CC(=O)O)C(C)C; 46.95
CC(C)CC(=O)N[C@H](C(=O)N[C@H](C(=O)N[C@@H](CC(C)C)[C@@H](O)CC(=O)N[C@@H](C)C(=O)N[C@@H](CC(C)C)[C@@H](O)CC(=O)O)C(C)C)C(C)C [PEPSTATIN]; 39.55

====

# test-summary: Chromatographic hydrophobicity index of compound incubated for 20 mins by reversed-phase HPLC analysis
# Type: ADME
Numbered stars: 1 amine (or outer) side, 2 acyl side, 3 side chain; on linkers, the order of the positions; unused ones are H or OH. Square brackets hold non-standard residues; d marks the D form. Peptide text beside a SMILES is read from it. * marks the point of attachment. X2 = C[C@@](N[*:1])(C(=O)[*:2])C(F)(F)F; X1 = C[C@](N[*:1])(C(=O)[*:2])C(F)(F)F; Sta = CC(C)C[C@H](N)[C@@H](O)CC(=O)O; Cbz = O=C(OCc1ccccc1)*
quantity-measured: CHI

CC(C)C[C@H](NC(=O)[C@H](C)NC(=O)C[C@H](O)[C@H](CC(C)C)NC(=O)[C@@H](NC(=O)[C@@](C)(NC(=O)OCc1ccccc1)C(F)(F)F)C(C)C)[C@@H](O)CC(=O)O (Cbz-[X2]V[Sta]A[Sta]-OH); 49.19
CC(C)C[C@H](NC(=O)[C@H](C)NC(=O)C[C@H](O)[C@H](CC(C)C)NC(=O)[C@@H](NC(=O)[C@](C)(NC(=O)OCc1ccccc1)C(F)(F)F)C(C)C)[C@@H](O)CC(=O)O (Cbz-[X1]V[Sta]A[Sta]-OH); 47.24

====

# test-system: Cathepsin D (Homo sapiens, UniProt P07339)
# Sequence (P07339 65-162 limits assumed): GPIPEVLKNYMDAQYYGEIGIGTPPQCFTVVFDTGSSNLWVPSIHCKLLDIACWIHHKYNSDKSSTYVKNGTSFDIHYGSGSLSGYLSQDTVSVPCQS
# Sequence (P07339 169-412 limits assumed): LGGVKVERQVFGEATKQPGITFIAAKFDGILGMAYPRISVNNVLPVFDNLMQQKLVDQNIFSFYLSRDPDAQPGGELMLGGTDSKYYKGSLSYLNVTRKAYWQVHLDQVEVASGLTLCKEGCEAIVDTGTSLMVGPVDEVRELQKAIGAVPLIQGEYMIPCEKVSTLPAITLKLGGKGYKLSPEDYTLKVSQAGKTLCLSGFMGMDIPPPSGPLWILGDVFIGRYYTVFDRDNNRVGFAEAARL
Structures can show the parent of a compound that is named as a salt. Square brackets hold non-standard residues; d marks the D form. Peptide text beside a SMILES is read from it. * marks the point of attachment. Sta = CC(C)C[C@H](N)[C@@H](O)CC(=O)O; Tfa = O=C(C(F)(F)F)*
quantity-measured: IC50

(Q) Enter IC50 (test system Cathepsin D (Homo sapiens, UniProt P07339)) for CC(C)C[C@H](NC(=O)[C@H](C)NC(=O)C[C@H](O)[C@H](CC(C)C)NC(=O)[C@@H](NC(=O)[C@@H](NC(=O)C(F)(F)F)C(C)C)C(C)C)[C@@H](O)CC(=O)O (Tfa-VV[Sta]A[Sta]-OH)
(A) > 2000 nM

====

# test-summary: Lipophilicity, logP of compound in n-Octanol/water
# Type: physicochemical
Structures can show the parent of a compound that is named as a salt. Numbered stars: 1 amine (or outer) side, 2 acyl side, 3 side chain; on linkers, the order of the positions; unused ones are H or OH. Square brackets hold non-standard residues; d marks the D form. Peptide text beside a SMILES is read from it. * marks the point of attachment. X2 = C[C@@](N[*:1])(C(=O)[*:2])C(F)(F)F; X1 = C[C@](N[*:1])(C(=O)[*:2])C(F)(F)F; Sta = CC(C)C[C@H](N)[C@@H](O)CC(=O)O; Cbz = O=C(OCc1ccccc1)*; Tfa = O=C(C(F)(F)F)*
quantity-measured: logP

CC(C)CC(=O)N[C@H](CCSC(F)(F)F)C(=O)N[C@H](C(=O)N[C@@H](CC(C)C)[C@@H](O)CC(=O)N[C@@H](C)C(=O)N[C@@H](CC(C)C)[C@@H](O)CC(=O)O)C(C)C; 3.3
CC(C)C[C@H](NC(=O)[C@H](C)NC(=O)C[C@H](O)[C@H](CC(C)C)NC(=O)[C@@H](NC(=O)[C@@H](NC(=O)C(F)(F)F)C(C)C)C(C)C)[C@@H](O)CC(=O)O (Tfa-VV[Sta]A[Sta]-OH); 2.44
CC(C)C[C@H](NC(=O)[C@H](C)NC(=O)C[C@H](O)[C@H](CC(C)C)NC(=O)[C@@H](NC(=O)[C@@](C)(NC(=O)OCc1ccccc1)C(F)(F)F)C(C)C)[C@@H](O)CC(=O)O (Cbz-[X2]V[Sta]A[Sta]-OH); 3.97
CC(C)CC(=O)N[C@@H](CCSC(F)(F)F)C(=O)N[C@H](C(=O)N[C@@H](CC(C)C)[C@@H](O)CC(=O)N[C@@H](C)C(=O)N[C@@H](CC(C)C)[C@@H](O)CC(=O)O)C(C)C; 3.33
CC(C)CC(=O)N[C@H](C(=O)N[C@H](C(=O)N[C@@H](CC(C)C)[C@@H](O)CC(=O)N[C@@H](C)C(=O)N[C@@H](CC(C)C)[C@@H](O)CC(=O)O)C(C)C)C(C)C [PEPSTATIN]; 2.37
CC(C)C[C@H](NC(=O)[C@H](C)NC(=O)C[C@H](O)[C@H](CC(C)C)NC(=O)[C@@H](NC(=O)[C@](C)(NC(=O)OCc1ccccc1)C(F)(F)F)C(C)C)[C@@H](O)CC(=O)O (Cbz-[X1]V[Sta]A[Sta]-OH); 3.36

Measured values drawn from ChEMBL document CHEMBL5543087 for this set.
